- test target: UniProtKB Q8ILY1
- Sequence (Q8ILY1 entry or part of it): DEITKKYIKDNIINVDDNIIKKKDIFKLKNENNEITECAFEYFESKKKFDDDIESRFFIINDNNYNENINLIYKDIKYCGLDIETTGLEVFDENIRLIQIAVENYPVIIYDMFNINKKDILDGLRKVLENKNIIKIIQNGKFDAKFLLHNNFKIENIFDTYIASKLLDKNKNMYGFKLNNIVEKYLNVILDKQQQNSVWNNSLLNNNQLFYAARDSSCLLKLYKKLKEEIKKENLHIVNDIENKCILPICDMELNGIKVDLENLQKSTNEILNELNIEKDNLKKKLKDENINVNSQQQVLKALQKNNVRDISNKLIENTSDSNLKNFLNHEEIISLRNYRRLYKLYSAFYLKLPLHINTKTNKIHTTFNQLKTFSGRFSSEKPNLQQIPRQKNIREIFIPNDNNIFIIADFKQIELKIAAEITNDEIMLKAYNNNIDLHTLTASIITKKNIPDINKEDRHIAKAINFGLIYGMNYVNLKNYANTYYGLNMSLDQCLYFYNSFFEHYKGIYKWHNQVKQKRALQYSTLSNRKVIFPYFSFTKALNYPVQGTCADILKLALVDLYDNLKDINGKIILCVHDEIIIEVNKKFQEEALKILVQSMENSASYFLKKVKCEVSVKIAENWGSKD
- method description: Fluorescence-based high-throughput DNA polymerase assay (molecular beacon), primary screen and dose-response
- Format: biochemical
- details: DRC-2; 5'; concentration 20
- Source text: The HT assay employs a molecular beacon, a stem-loop DNA template with a Cy3 dye and the Black Hole Quencher on the 3′ and 5′ ends of the DNA, respectively. Pf-apPOL concentration is based on a calculated absorptivity of ε280 = 56750 M^−1 cm^−1. […] To identify apPOL inhibitors we utilised our previously developed high-throughput DNA polymerase assay. […] The assay accurately recapitulates the kinetic behaviour of apPOL, as measured through more conventional low-throughput gel-based assays. […]
In this section we review reported % inhibition Apo pol 5' values for a set of molecules.
Give a bare numeral; the unit % is implied.

Here are 3 molecules together with their reported answers.
{"columns": ["molecule", "test target", "val"],
 "data": [
  ["Cc1ccccc1C(=O)N1CCc2c(nc3cc(-c4ccccc4)[nH]n3c2=O)C1", "UniProtKB Q8ILY1", 17],
  ["Nc1c(S(=O)(=O)O)cc(Nc2ccccc2)c2c1C(=O)c1ccccc1C2=O", "UniProtKB Q8ILY1", 73],
  ["COc1ccc2c(c1)C(c1ccccc1OC)CC(=O)O2 (centres unmarked)", "UniProtKB Q8ILY1", 55]
]}

Exercise: Quick one: % inhibition Apo pol 5' of `N#Cc1c(C2CCCCC2)nc(Sc2ccc(C(F)(F)F)cc2[N+](=O)[O-])[nH]c1=O` ?
Key: 55

Exercise: Find the recorded % inhibition Apo pol 5' belonging to `O=[N+]([O-])/C=C/c1ccc(-c2ccc(Br)cc2)o1` and report it.
Key: 26

Exercise: For the molecule shown here, `COc1ccc(-c2cc(=O)c3cc(O)ccc3o2)cc1OC` , give the reported % inhibition Apo pol 5'.
Key: 23

Exercise: Entry under review: `O=C(O)c1cccc(N2N=C(C(F)(F)F)/C(=C/c3ccc(-c4ccccc4[N+](=O)[O-])o3)C2=O)c1` . Reported % inhibition Apo pol 5'?
Key: 55

Exercise: Any idea what its % inhibition Apo pol 5' is? The molecule is O=c1[nH]c2ccc(Br)cc2c(-c2ccccc2)c1C1=NNC(c2ccco2)C1 (centres unmarked)
Key: 65

----------
- test target: bacteriophage T4 DNA polymerase (Enterobacteria phage T4)
- Construct: made in house
- Sequence (P04415 1-898): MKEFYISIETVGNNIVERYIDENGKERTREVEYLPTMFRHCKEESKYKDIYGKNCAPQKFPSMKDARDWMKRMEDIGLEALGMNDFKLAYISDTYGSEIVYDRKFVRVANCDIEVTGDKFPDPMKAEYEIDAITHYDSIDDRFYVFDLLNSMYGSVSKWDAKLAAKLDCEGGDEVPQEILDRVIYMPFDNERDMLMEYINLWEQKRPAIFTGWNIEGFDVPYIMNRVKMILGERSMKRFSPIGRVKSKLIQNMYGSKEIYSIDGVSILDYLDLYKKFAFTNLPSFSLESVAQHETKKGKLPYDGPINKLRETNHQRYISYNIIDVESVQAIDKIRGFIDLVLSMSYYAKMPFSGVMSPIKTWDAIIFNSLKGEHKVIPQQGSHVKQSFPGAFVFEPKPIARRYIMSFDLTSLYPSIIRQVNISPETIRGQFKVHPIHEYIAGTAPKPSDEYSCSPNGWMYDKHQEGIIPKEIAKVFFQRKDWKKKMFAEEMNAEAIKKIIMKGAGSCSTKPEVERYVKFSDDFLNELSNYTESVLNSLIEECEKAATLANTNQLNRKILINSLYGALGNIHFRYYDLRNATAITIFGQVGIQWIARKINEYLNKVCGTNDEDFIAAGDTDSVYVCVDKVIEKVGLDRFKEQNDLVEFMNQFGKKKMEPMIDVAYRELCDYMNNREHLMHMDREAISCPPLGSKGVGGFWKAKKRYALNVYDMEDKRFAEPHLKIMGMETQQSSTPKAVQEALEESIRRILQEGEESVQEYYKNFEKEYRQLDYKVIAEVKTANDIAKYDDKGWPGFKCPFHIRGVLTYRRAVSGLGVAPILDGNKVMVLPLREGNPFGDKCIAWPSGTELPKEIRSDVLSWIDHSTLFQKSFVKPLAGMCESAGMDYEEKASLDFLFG
- method description: Counter-screen against bacteriophage T4 DNA polymerase
- Format: biochemical
- details: DRC-1; read at 10'; concentration 10
quantity measured: % inhibition T4 10' 10 (%)
Give the quantity in %, number only.

{"columns": ["structure smiles", "test target", "% inhibition T4 10' 10 [%]"],
 "data": [
  ["COc1ccc(/C=C/c2cc(C(=O)O)c3ccccc3n2)cc1", "bacteriophage T4 DNA polymerase (Enterobacteria phage T4)", 0.5818],
  ["Cn1nc(-c2nc(-c3ccccc3)no2)c2c1CCN(C(=O)Cc1cccs1)C2", "bacteriophage T4 DNA polymerase (Enterobacteria phage T4)", 20]
]}

Exercise: Entry `Cc1ccsc1Cn1c(C)ccc1C` : reported % inhibition T4 10' 10 = ?
Key: 9.004

Exercise: What does the record list as % inhibition T4 10' 10 for `Cn1nc(-c2nnc(-c3ccccc3F)o2)c2c1CCN(C(=O)c1ccccc1Cl)C2` ?
Key: 3

----------
- test target: bacteriophage T4 DNA polymerase (Enterobacteria phage T4, UniProt P04415)
- Construct: made in house
- method description: Counter-screen against bacteriophage T4 DNA polymerase
- Assay type: biochemical
- details: DRC-2; 180'; concentration 20
# % inhibition T4 180' per record follows
Please reply with the bare figure in % and do not write the unit itself.

// worked examples, % inhibition T4 180' included
{"columns": ["compound", "value unit", "% inhibition T4 180'"],
 "data": [
  ["O=C(NC(C(Cl)Cl)S(=O)(=O)c1ccccc1)c1ccccc1 (stereo not shown) [KU0045239]", "%", -17],
  ["Cc1nc(/N=N/c2ccc(C(=O)[O-])cc2)c(COP(=O)([O-])[O-])c(C=O)c1O.[Na+].[Na+].[Na+] [KU0261395]", "%", -9],
  ["Cc1ccc(-n2nnc(C(=O)O)c2-c2ccccn2)c(F)c1 [Molecule 54, Cc1ccc(c(c1)F)n1nnc(c1c1ccccn1)C(=O)O]", "%", 17]
]}

Exercise: Looking for the measured % inhibition T4 180' of Cc1ccc(C)n1-c1ccc(C(=O)NNC(=O)c2ccc3nccnc3c2)cc1 [Molecule 53] , can you help?
Key: 24

----------
- test target: UniProtKB Q8ILY1
- method description: Fluorescence-based high-throughput DNA polymerase assay (molecular beacon), primary screen and dose-response
- Assay type: biochemical
- details: DRC-2, 5', concentration 5
Outcome: label 1 for % inhibition Apo pol 5' of at least 10%; label 0 for anything lower.

// below: answered molecules
{"columns": ["molecule", "class name"],
 "data": [
  ["CCSc1nnc(NC(=O)Cc2csc(NC(=O)c3cnccn3)n2)s1", "label 1"],
  ["CCOC(=O)C(NCc1ccco1)(NC(=O)c1ccco1)C(F)(F)F (stereo not shown)", "label 0"],
  ["Cc1nn(CC(=O)NCCSCc2ccco2)c(C)c1Br", "label 0"]
]}

Moving on to the next molecule.
Exercise: Answer whether % inhibition Apo pol 5' of `O=C(O)C(=O)Nc1nc(-c2ccc3c(c2)OCCO3)cs1` is greater than or equal to 10%.
Key: label 1

----------
- test target: bacteriophage T4 DNA polymerase (Enterobacteria phage T4, UniProt P04415)
- Construct: made in house
- method description: Counter-screen against bacteriophage T4 DNA polymerase
- Assay type: biochemical
- details: DRC-2; read at 40'; concentration 10
quantity measured: % inhibition T4 40' 10 (%)
// note: answer is a bare numeric in %

Before answering, review these 8 worked examples.
{"columns": ["compound", "quantity measured", "value unit", "val"],
 "data": [
  ["O=C(CCc1csc(NC(=O)Nc2ccccc2)n1)Nc1nc2ccccc2s1", "% inhibition T4 40' 10", "%", 9],
  ["Cc1cc2[nH]c(C(=O)Nc3ccc(F)cc3)c(CN3CCOCC3)c2s1", "% inhibition T4 40' 10", "%", 12],
  ["COc1ccc(C2CC(c3ccc(Cl)cc3Cl)Nc3nc(N)nn32)cc1OC (stereo not drawn)", "% inhibition T4 40' 10", "%", -1.88],
  ["Cc1ccsc1Cn1c(C)ccc1C", "% inhibition T4 40' 10", "%", 10],
  ["Cc1ccc(N2CCC(NC(=O)Cc3cccs3)C2=O)cc1C (stereo not drawn)", "% inhibition T4 40' 10", "%", 20],
  ["CC(=O)Nc1cc(C(=O)c2cccs2)nn(-c2ccc(Cl)cc2)c1=O", "% inhibition T4 40' 10", "%", 6.35],
  ["CCCc1ccc(Oc2coc3cc(OC)ccc3c2=O)cc1", "% inhibition T4 40' 10", "%", 0.369],
  ["Nc1cc(Oc2ccc(O)c(N)c2)ccc1O", "% inhibition T4 40' 10", "%", -5.5]
]}

Exercise: Find the recorded % inhibition T4 40' 10 belonging to `COc1ccccc1CC(=O)N1CCc2c(nc3cc(-c4ccccc4Cl)[nH]n3c2=O)C1` and report it.
Key: -34
